Assay: Binding affinity against Opioid receptor delta 1 in guinea pig brain homogenate using [3H]- DPDPE as radioligand
pIC50: −log10 of the molar value.
Item-by-item account of pIC50
assay endpoint: pIC50

mol smiles	assay endpoint	measured result
CC(C)C[C@@H]1NC(=O)[C@H](CCCCN)NC(=O)[C@@H]2CCCN2C(=O)[C@H](CCCNC(=N)N)NC(=O)[C@@H](NC(=O)[C@H](CCCNC(=N)N)NC(=O)[C@H](CCCNC(=N)N)NC(=O)[C@H](CC(C)C)NC(=O)[C@H](Cc2ccccc2)NC(=O)CNC(=O)CNC(=O)[C@@H](N)Cc2ccc(O)cc2)CSSC[C@@H](C(N)=O)NC1=O	pIC50	8.40
C[C@H]1NC(=O)[C@H](CCCNC(=N)N)NC(=O)[C@H](CCCNC(=N)N)NC(=O)[C@@H](NC(=O)[C@H](Cc2ccccc2)NC(=O)CNC(=O)CNC(=O)[C@@H](N)Cc2ccc(O)cc2)CSSC[C@@H](C(N)=O)NC(=O)[C@@H]2CCCN2C(=O)[C@H](CCCNC(=N)N)NC1=O	pIC50	7.72
CC[C@H](C)[C@H](NC(=O)[C@H](CCCNC(=N)N)NC(=O)[C@H](CCCNC(=N)N)NC(=O)[C@H](CC(C)C)NC(=O)[C@H](Cc1ccccc1)NC(=O)CNC(=O)CNC(=O)[C@@H](N)Cc1ccc(O)cc1)C(=O)N[C@@H](CCCNC(=N)N)C(=O)N1CCC[C@H]1C(=O)N[C@@H](CCCCN)C(N)=O	pIC50	8.15
CC(C)C[C@H](NC(=O)[C@H](Cc1ccccc1)NC(=O)CNC(=O)CNC(=O)[C@@H](N)Cc1ccc(O)cc1)C(=O)N[C@@H](CCCNC(=N)N)C(=O)N[C@@H](CCCNC(=N)N)C(=O)N[C@@H]1CSSC[C@H](C(N)=O)NC(=O)[C@H](CC(C)C)NC(=O)[C@H](CCCCN)NC(=O)[C@@H]2CCCN2C(=O)[C@H](CCCNC(=N)N)NC1=O	pIC50	7.85

----------
Experiment: Binding affinity against Opioid receptor delta 1 in guinea pig brain homogenate using [3H]- DPDPE as radioligand
Positions of bridges follow the written chain, without caps; N, C: chain ends. Residues, ends and D or L forms follow the SMILES beside them.
assay endpoint: IC50

compound	assay endpoint	measured result
CC[C@H](C)[C@H](NC(=O)[C@H](CCCNC(=N)N)NC(=O)[C@H](CCCNC(=N)N)NC(=O)[C@H](CC(C)C)NC(=O)[C@H](Cc1ccccc1)NC(=O)CNC(=O)CNC(=O)[C@@H](N)Cc1ccc(O)cc1)C(=O)N[C@@H](CCCNC(=N)N)C(=O)N1CCC[C@H]1C(=O)N[C@@H](CCCCN)C(=O)N[C@@H](CC(C)C)C(=O)N[C@@H](CCCCN)C(N)=O	IC50	4.1 nM
CC(C)C[C@@H]1NC(=O)[C@H](CCCCN)NC(=O)[C@@H]2CCCN2C(=O)[C@H](CCCNC(=N)N)NC(=O)[C@H](NC(=O)[C@H](CCCNC(=N)N)NC(=O)[C@H](CCCNC(=N)N)NC(=O)[C@H](CC(C)C)NC(=O)[C@H](Cc2ccccc2)NC(=O)CNC(=O)CNC(=O)[C@@H](N)Cc2ccc(O)cc2)CSSC[C@@H](C(N)=O)NC1=O	IC50	104 nM
CC[C@H](C)[C@@H]1NC(=O)[C@H](CCCNC(=N)N)NC(=O)[C@H](CCCNC(=N)N)NC(=O)[C@@H](NC(=O)[C@H](Cc2ccccc2)NC(=O)CNC(=O)CNC(=O)[C@@H](N)Cc2ccc(O)cc2)CSSC[C@@H](C(N)=O)NC(=O)[C@@H]2CCCN2C(=O)[C@H](CCCNC(=N)N)NC1=O (H-YGGFCRRIRPC-NH2; disulfide 5-11)	IC50	1.6 nM
